B1: Triacylglycerol hydrolase DDHD2, residues 389 to 447; numbered along this chain, O94830 (parent)
chain: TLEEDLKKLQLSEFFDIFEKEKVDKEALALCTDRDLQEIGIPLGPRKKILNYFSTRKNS

Variants of: B1
Experiment: abundance fitness (aPCA) (normalised: wild type 0, dead -1); higher = more abundant; growth selection in yeast, the domain comes from the species named
Details: Homo sapiens
Give abundance fitness for every item shown.
Could you keep your reply to the number by itself?

Give abundance fitness for the following variant: L36K
-0.06

Give abundance fitness for the following variant: D33Y
-0.498

Give abundance fitness for the following variant: I49W
-0.477

Give abundance fitness for the following variant: E4P
-0.996

Give abundance fitness for the following variant: V23P
-0.374

Give abundance fitness for the following variant: E4L
-0.371

Give abundance fitness for the following variant: D5Q
-0.062

Give abundance fitness for the following variant: L28Y
-0.634

Give abundance fitness for the following variant: L50T
-0.209

Give abundance fitness for the following variant: G44A
0.35

Give abundance fitness for the following variant: D33W
-0.51

Give abundance fitness for the following variant: K57N
-0.287

Give abundance fitness for the following variant: G44L
0.1

Give abundance fitness for the following variant: E19I
0.007

Give abundance fitness for the following variant: K57C
-0.269

Give abundance fitness for the following variant: K25V
0.027

Measured values drawn from the Human Domainome abundance scans (Beltran et al. 2025) for this set.
